# study system: Aminopeptidase N (Homo sapiens)
# Sequence (P15144 whole entry): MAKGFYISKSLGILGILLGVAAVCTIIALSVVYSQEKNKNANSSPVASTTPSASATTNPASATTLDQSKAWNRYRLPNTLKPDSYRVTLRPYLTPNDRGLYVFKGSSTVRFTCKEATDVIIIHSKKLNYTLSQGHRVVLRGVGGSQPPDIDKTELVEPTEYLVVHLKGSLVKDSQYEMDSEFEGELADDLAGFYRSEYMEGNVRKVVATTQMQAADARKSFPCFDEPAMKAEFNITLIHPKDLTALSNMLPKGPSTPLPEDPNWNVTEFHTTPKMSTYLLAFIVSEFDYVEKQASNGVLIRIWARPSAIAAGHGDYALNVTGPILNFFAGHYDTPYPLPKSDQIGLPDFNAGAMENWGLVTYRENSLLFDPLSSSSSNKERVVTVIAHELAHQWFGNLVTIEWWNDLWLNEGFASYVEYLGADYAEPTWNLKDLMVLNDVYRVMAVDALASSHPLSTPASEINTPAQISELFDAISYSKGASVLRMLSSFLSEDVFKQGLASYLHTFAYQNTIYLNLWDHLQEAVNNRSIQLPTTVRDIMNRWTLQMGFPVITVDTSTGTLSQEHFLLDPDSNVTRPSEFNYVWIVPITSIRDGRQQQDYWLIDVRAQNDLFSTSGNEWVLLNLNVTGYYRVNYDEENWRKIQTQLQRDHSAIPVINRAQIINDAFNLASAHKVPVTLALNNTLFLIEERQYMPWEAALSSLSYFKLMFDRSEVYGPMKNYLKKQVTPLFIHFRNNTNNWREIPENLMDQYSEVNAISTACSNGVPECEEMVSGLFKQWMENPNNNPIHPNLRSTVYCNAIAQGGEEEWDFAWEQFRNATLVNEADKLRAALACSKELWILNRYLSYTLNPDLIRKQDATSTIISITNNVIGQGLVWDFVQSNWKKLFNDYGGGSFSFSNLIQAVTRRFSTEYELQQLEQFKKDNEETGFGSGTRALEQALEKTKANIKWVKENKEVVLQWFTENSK

>  <compound>
Cl.NC1CCc2ccccc2CC1=O (stereo unspecified)

>  <result units>
nM

>  <Ki>
1000

$$$$

* * *

# test protocol: Inhibition of Aeromonas proteolytica aminopeptidase by Dixon plot analysis
# Parameters: species or system Vibrio proteolyticus
Structures can show the parent of a compound that is named as a salt.
observation type: IC50 (µM)

>  <compound>
CC(C)C[C@H](NC(=O)[C@@H](O)[C@H](N)Cc1ccccc1)C(=O)O [UBENIMEX]

>  <value relation sign>
=

>  <reported result>
0.0016

$$$$
>  <compound>
Cl.NC1CCc2ccccc2CC1=O (stereo not drawn)

>  <value relation sign>
=

>  <reported result>
900

$$$$
>  <compound>
NC1CCCCCC1=O (stereo not drawn) [2-AMINOCYCLOHEPTANONE HYDROCHLORIDE]

>  <value relation sign>
=

>  <reported result>
350

$$$$
>  <compound>
N[C@H]1CCc2ccccc2C[C@H]1O (relative stereo)

>  <value relation sign>
>

>  <reported result>
1000

$$$$
>  <compound>
NC1Cc2ccccc2CC1=O (stereo not drawn)

>  <value relation sign>
=

>  <reported result>
130

$$$$
>  <compound>
NC1Cc2ccccc2CCC1=O (stereo not drawn)

>  <value relation sign>
>

>  <reported result>
1000

$$$$
>  <compound>
NC1CCc2ccccc2C/C1=N/O (stereo not drawn)

>  <value relation sign>
=

>  <reported result>
15

$$$$
>  <compound>
NC1C(=O)Cc2ccccc21 (stereo not drawn)

>  <value relation sign>
=

>  <reported result>
150

$$$$
